Exercise: state measured minimal effective concentration for each of the molecules provided.
test system: guinea pig heart; test: Second degree heart block (Wenckebach point), Langendorff guinea pig heart; conditions: Cavia porcellus; concentration at appearance of second degree heart block; read-out: Wenckbach

The cases that follow already have their minimal effective concentration on record.
molecule: Nc1nc(NN=Cc2ccc(F)cc2)nc2c1ncn2[C@@H]1O[C@H](CO)[C@@H](O)[C@H]1O
minimal effective concentration: 30.9 µM
--
molecule: Nc1nc(NN=Cc2cccs2)nc2c1ncn2[C@@H]1O[C@H](CO)[C@@H](O)[C@H]1O
minimal effective concentration: 93 µM
--
molecule: Nc1nc(NN=Cc2ccc(Cl)cc2)nc2c1ncn2[C@@H]1O[C@H](CO)[C@@H](O)[C@H]1O
minimal effective concentration: 30.4 µM
--
molecule: Nc1nc(NN=Cc2ccc3ccccc3c2)nc2c1ncn2[C@@H]1O[C@H](CO)[C@@H](O)[C@H]1O
minimal effective concentration: 10.1 µM
--
molecule: CC(=NNc1nc(N)c2ncn([C@@H]3O[C@H](CO)[C@@H](O)[C@H]3O)c2n1)c1ccc(F)cc1
minimal effective concentration: 7.3 µM
--
molecule: COc1ccc(C=NNc2nc(N)c3ncn([C@@H]4O[C@H](CO)[C@@H](O)[C@H]4O)c3n2)cc1
minimal effective concentration: 50 µM

For every item in the list below, what is its measured minimal effective concentration?
1. NNc1nc(N)c2ncn([C@@H]3O[C@H](CO)[C@@H](O)[C@H]3O)c2n1 [Example 8, reference compound]
2. Nc1nc(NN=Cc2ccccc2)nc2c1ncn2[C@@H]1O[C@H](CO)[C@@H](O)[C@H]1O
3. Nc1nc(NN=Cc2cccnc2)nc2c1ncn2[C@@H]1O[C@H](CO)[C@@H](O)[C@H]1O
4. Nc1nc(NN=Cc2cccc3ccccc23)nc2c1ncn2[C@@H]1O[C@H](CO)[C@@H](O)[C@H]1O
5. CC(=NNc1nc(N)c2ncn([C@@H]3O[C@H](CO)[C@@H](O)[C@H]3O)c2n1)c1ccccc1
6. Nc1nc(NN=Cc2ccncc2)nc2c1ncn2[C@@H]1O[C@H](CO)[C@@H](O)[C@H]1O

Reply:
18.2 µM
216 µM
63.5 µM
2 µM
11 µM
68 µM

* * *

Exercise: state measured EC50 for each of the compounds provided.
molecular target: A2 adenosine receptor (Cavia porcellus); details: -LOG EC50 A2, BIOASSAY RESULTS table, A2
Sequence (P46616 whole entry): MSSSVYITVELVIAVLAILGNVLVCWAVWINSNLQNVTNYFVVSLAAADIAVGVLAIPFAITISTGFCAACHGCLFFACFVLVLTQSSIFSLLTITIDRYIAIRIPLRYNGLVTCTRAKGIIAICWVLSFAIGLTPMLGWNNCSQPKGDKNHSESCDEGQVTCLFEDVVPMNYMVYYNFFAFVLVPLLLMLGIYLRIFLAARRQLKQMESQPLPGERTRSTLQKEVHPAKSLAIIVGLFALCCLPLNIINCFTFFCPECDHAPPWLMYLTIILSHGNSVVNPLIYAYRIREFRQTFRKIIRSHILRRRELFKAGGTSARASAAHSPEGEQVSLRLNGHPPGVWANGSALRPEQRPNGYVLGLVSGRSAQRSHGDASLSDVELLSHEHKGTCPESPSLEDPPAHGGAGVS

The cases that follow already have their EC50 on record.
compound: CC(=NNc1nc(N)c2ncn([C@@H]3O[C@H](CO)[C@@H](O)[C@H]3O)c2n1)c1ccc(F)cc1 [Example 10]
EC50: 3.24 nM
//
compound: Nc1nc(NN=Cc2ccccc2)nc2c1ncn2[C@@H]1O[C@H](CO)[C@@H](O)[C@H]1O [Example 7]
EC50: 2.29 nM
//
compound: Nc1nc(NN=CCCCc2ccccc2)nc2c1ncn2[C@@H]1O[C@H](CO)[C@@H](O)[C@H]1O [3-Ph Propyl, H]
EC50: 1.95 nM
//
compound: Nc1nc(NN=CCCCC2CCCCC2)nc2c1ncn2[C@@H]1O[C@H](CO)[C@@H](O)[C@H]1O [3-C Hexylpropyl, H]
EC50: 1.78 nM

Task item: Give the reported EC50 for Nc1nc(N)c2ncn([C@@H]3O[C@H](CO)[C@@H](O)[C@H]3O)c2n1 [2-Amino-adenosine, reference compound] (system: A2 adenosine receptor (Cavia porcellus)).
Reply: 224 nM

From: patent US5278150A
